Reference source for all entries: paper PMC4871277

MEASURED ON: HDAC8 (Homo sapiens, UniProt Q9BY41)
Sequence (Q9BY41 whole entry): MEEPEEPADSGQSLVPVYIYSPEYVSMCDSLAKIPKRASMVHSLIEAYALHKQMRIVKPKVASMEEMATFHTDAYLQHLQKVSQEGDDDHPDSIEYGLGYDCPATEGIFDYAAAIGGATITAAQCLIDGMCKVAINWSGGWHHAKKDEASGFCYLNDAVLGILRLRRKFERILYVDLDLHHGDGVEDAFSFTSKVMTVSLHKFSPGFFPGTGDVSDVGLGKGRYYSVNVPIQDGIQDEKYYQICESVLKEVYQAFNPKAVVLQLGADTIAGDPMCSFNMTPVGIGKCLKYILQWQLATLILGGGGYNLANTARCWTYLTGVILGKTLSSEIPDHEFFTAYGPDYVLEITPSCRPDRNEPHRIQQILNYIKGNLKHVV
PROTOCOL NOTES: human recombinant HDAC inhibition assay
CONDITION SUMMARY: read-out: Ki value HDAC8
METRIC: Ki (µM)
Numbers only, in µM.

Exercise: Quick one: Ki of CC1=NN(c2ccc(C(=O)O)cc2)C(=O)/C1=C\c1ccc(-c2cc(C)c(C)cc2[N+](=O)[O-])o1 ?
Key: 11

---

MEASURED ON: UniProt:O15379
Sequence (O15379 whole entry): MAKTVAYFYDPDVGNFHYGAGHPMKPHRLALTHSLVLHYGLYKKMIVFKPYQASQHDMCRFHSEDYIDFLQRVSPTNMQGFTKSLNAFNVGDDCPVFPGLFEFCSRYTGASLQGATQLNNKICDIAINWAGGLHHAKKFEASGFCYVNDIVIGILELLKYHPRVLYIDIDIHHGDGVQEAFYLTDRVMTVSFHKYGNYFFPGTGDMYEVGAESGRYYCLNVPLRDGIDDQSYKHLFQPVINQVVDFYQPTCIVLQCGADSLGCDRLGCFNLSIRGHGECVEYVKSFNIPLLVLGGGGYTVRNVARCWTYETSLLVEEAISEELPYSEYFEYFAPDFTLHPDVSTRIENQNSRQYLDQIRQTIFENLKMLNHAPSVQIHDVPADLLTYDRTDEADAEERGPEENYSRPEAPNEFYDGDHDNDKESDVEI
Sequence (Q9Y618 395-489 partner limits assumed): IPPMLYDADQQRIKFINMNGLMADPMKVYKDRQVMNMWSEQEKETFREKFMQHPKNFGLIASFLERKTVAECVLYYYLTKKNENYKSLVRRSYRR
PROTOCOL NOTES: human recombinant HDAC inhibition assay
CONDITION SUMMARY: read-out: Ki value HDAC3
METRIC: Ki (µM)
Answers are plain numbers, in µM.

Exercise: Endpoint output: Ki of CC1=NN(c2ccc(C(=O)O)cc2)C(=O)/C1=C\c1ccc(-c2cc(C)c(C)cc2[N+](=O)[O-])o1 . Value?
Key: 25
